Data credit: patent US20220387487A1

As shown below, each of these molecules has a reported FMC63 Binding Score value.
# Tested on: FMC63
# Sequence (as listed by the source): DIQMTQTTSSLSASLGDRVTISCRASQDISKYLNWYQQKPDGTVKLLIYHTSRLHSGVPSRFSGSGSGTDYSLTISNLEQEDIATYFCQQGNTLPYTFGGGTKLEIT
# Sequence (as listed by the source): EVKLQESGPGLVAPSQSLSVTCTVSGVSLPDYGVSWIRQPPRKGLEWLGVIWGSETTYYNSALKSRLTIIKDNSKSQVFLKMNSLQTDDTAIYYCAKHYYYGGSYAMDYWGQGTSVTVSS
# run_description: CD19 variant binding to anti-CD19 antibody FMC63 (score)
# condition_context: Table 1A, CD19 single mutants (positions of SEQ ID NO:2)

molecule	FMC63 Binding Score
W264S: CD19 variant (protein) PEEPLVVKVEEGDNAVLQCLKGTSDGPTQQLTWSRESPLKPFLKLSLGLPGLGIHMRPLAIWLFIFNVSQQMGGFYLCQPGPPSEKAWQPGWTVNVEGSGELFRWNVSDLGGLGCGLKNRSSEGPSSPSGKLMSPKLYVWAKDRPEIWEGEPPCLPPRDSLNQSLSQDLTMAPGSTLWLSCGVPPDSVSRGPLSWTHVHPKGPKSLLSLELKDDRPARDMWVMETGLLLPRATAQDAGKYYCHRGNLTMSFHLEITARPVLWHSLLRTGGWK	7.6 ± .5
G226S: CD19 variant (protein) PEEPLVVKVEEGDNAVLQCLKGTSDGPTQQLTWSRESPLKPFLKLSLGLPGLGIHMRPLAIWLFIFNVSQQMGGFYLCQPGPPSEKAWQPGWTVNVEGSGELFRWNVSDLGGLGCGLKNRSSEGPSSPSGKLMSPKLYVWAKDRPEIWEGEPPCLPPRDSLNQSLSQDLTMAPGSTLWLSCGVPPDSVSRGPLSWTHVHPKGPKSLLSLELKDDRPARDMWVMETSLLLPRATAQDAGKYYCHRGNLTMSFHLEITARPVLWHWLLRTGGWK	6.1 ± .4
